Values from ChEMBL document CHEMBL1126066

Listing of entries alongside the reported Inhibition.
tested on: Rattus norvegicus; test: In vivo inhibition of polyol accumulation in the sciatic nerve of galactosemic rats, activity is expressed as percent inhibition of poloyl accumulation.; type: functional; design: concentration or dose not given beside the values

1. Cc1ccc2c(c1)C1(NC(=O)NC1=O)N(C)C(=O)N2 (centres undefined)	30.9%
2. CN1C(=O)Nc2c([N+](=O)[O-])cc(Cl)cc2C12NC(=O)NC2=O (centres undefined)	29.2%
3. Cc1cccc2c1C1(NC(=O)NC1=O)N(C)C(=O)N2 (centres undefined)	27.5%

As a next step, examine the compound that follows.
Task item: If you can, please state the reported Inhibition value of COc1ccc2c(c1)NC(=O)N(C)C21NC(=O)NC1=O (centres undefined) .
Reply: 21%
